// provenance: PubChem BioAssay (NCI)

# System: M14 melanoma
# Assay Text: NCI tumour cell line growth inhibition, 48 h
Kindly supply the reported TGI values for the records listed here.

Quick check: TGI of COc1ccc(OC)c2c1C(=O)C1CC1(Br)C2=O (stereo not given) ?
> 100 µM

Field entry: CCN(C(=S)N[C@H](C(=O)N[C@@H](C)C(=O)OC)C(C)C)c1ccccc1
> 100 µM

Field entry: Cc1cn(Cc2cnnn2CC2OC(n3cc(C)c(=O)[nH]c3=O)CC2O)c(=O)[nH]c1=O (stereo not given)
> 100 µM

Field entry: CC(C)(Oc1ccc(Cl)cc1)C(=O)N(C(=O)N1CCC(c2ccccc2)CC1)c1ccccc1
> 100 µM

Field entry: COc1cc2cc[n+]3c(C)c4cc(OC)c(OC)cc4c([O-])c3c2cc1OC
> 100 µM

Field entry: O=C(O)c1ccn(-c2cccc(-n3ccc(C(=O)O)n3)n2)n1
> 100 µM

Field entry: CCOC(=O)C(NC(=O)CC)(Nc1cc(C)on1)C(F)(F)F (stereo not given)
> 100 µM

Field entry: O=C(Nc1ccccc1)N(CCCCN(Cc1ccccc1)C(=O)Nc1ccccc1)Cc1ccccc1
> 100 µM

Field entry: COc1cc(C2C(Cl)C(=O)N2NC(=O)c2ccc(N)cc2)ccc1O (stereo not given)
> 100 µM

Field entry: Nc1[nH]nc2nc(-c3cccs3)cc(C(F)(F)F)c12
> 25 µM

Field entry: CCc1cccc(C)c1NC(=O)C(=O)Cc1nc2ccccc2s1
> 100 µM

Field entry: O=CN/C=C/c1ccc(O)c(O)c1
> 100 µM

Field entry: COc1ccc(-c2c(C#N)c(S)n(NS(=O)(=O)c3ccc(C)cc3)c(=O)c2C#N)cc1
52.9 µM

Field entry: O=C(Nc1nc2ccccc2s1)c1cc([N+](=O)[O-])ccc1Cl
> 47.8 µM

Field entry: C=C(CO[Si](C)(C)C(C)(C)C)C(C)=O
27.5 µM

Field entry: Cc1ccc(Nc2nc(C)c(C(/C=C/c3ccc(/C=C/C(=N/NC(=O)C[n+]4ccccc4)c4sc(Nc5ccc(C)cc5[N+](=O)[O-])nc4C)cc3)=N\NC(=O)C[n+]3ccccc3)s2)c([N+](=O)[O-])c1
> 100 µM

Field entry: CS[C@]12C(=O)C[C@@]3(C)[C@@H](CC[C@]3(O)C(=O)CO)[C@@H]1CCC1=CC(=O)CC[C@@]12C
> 100 µM

Field entry: NC(=O)c1c(NC(=O)c2ccc3c(c2)OCO3)sc2c1CCC(=O)C2
> 100 µM

Field entry: O=C(Nc1cccc(NC(=O)Nc2cc(C(F)(F)F)ccc2Cl)c1)Nc1cc(C(F)(F)F)ccc1Cl
60 µM

Field entry: N#Cc1ccccc1-c1nc2c3c(c(N)ccc3n1)C(=O)c1ccccc1-2
> 100 µM

---

# System: MALME-3M melanoma
# Assay Text: NCI tumour cell line growth inhibition, 48 h
Kindly supply the reported TGI values for the records listed here.
Hi! Could you send only the number? It should be in nM, unit omitted.

Quick check: TGI of CC(=O)c1c(C(F)(F)F)n([O-])c2cc(Cl)c(Cl)cc2[n+]1=O ?
2470

Field entry: CCCCN(CCCC)c1ccc(C(=N)c2ccc(N(CCCC)CCCC)cc2)cc1
2120

---

# Test system: A498 renal
# Assay Text: NCI tumour cell line growth inhibition, 48 h
Assay Metric: TGI

Quick check: TGI of COc1ccc2nc3cc([N+](=O)[O-])ccc3c(Nc3ccc(S(=O)(=O)NC(C)=O)cc3)c2c1 ?
> 100 µM

Field entry: C/C=C(/C)C(=O)O[C@H](C[C@@H](C)[C@H]1CC(c2ccoc2)OC1=O)[C@@]1(C)C(=O)CCC2O[C@]21C (stereo not given in full)
> 100 µM

Field entry: Cc1ccccc1NC(=O)C(=O)CC(=O)c1c(C)n([O-])c2ccccc2[n+]1=O
> 100 µM

Field entry: COC(=O)[C@H]1CO[C@H]2C/C(C)=C/CC/C(C)=C/CC[C@@]3(C)O[C@@H]3C[C@H]21
> 50 µM

Field entry: COc1ccc(OC)c2c1C(=O)C1CC1(Br)C2=O (stereo not given)
> 100 µM

---

# System: 786-0 renal
# Assay Text: NCI tumour cell line growth inhibition, 48 h; in the data active = GI50 below about 0.43 µM; inactive = the rest
Form entry, call: pick from active, inactive

Could you please tell me the result logged for CCOc1cc2ncc(C#N)c(Nc3ccc(OCc4ccccn4)c(Cl)c3)c2cc1NC(=O)/C=C/CN(C)C in this assay?
inactive

Field entry: O=C1c2ccccc2-c2c1c1ccccc1c(=O)n2CCN1CCOCC1
inactive

Field entry: COc1ccc(/C=C\c2cc(OC)c(OC)c(OC)c2)cc1OC
inactive

Field entry: CCN(CC)Cc1ccc(Nc2nccc(-c3cnn4ncccc34)n2)cc1
active

Field entry: NC(=O)c1c(NC(=O)c2ccc3c(c2)OCO3)sc2c1CCC(=O)C2
inactive

Field entry: O=C(COc1ccc(/C=C2\Oc3ccccc3C2=O)cc1)Nc1nc2c(s1)CCCC2
inactive

Field entry: O=C(Nc1ccc(Cl)cc1)Nc1ccc(Nc2nncc3ccccc23)cc1
inactive

Field entry: COc1ccc(C2SC(C)C(=O)N2NC(=O)C(O)c2ccccc2)cc1OC (stereo not given)
inactive

Field entry: Cc1ccc(CNc2c3ccccc3nc3cc(NC(=O)CCN4CCCC4)ccc23)cc1
inactive

Field entry: CC[C@H](CO)Nc1nc(NCc2ccccc2)n2ncc(C(C)C)c2n1
inactive

---

# Test system: HCT-116 colon
# Assay Text: NCI tumour cell line growth inhibition, 48 h; in the data active means GI50 below about 0.43 µM; inactive means the rest
Form entry, call: pick from T (active), F (inactive)

Could you please tell me the result logged for CCOc1ccccc1N=Nc1c(C)[nH]n(-c2nc(-c3ccccc3)cs2)c1=O in this assay?
F

Field entry: O=c1nc2oc3ccc4ccccc4c3cc-2s1
F

Field entry: CC(C)(O)CC(=O)NCCn1ccc2ncnc(Nc3ccc(Oc4cccc(C(F)(F)F)c4)c(Cl)c3)c21
F

Field entry: COc1ccc(C(=O)/C=C/c2c(Cl)c3c(c(OC)c2Cl)OCC(=O)N3)cc1
F

Field entry: O=C(COc1ccc(/C=C2\Oc3ccccc3C2=O)cc1)Nc1nc2c(s1)CCCC2
F

Field entry: Cn1cc(C2=C(c3cccc(OCC(O)CO)c3)C(=O)NC2=O)c2ccccc21 (stereo unspecified)
F

Field entry: Cc1c2c(nn1C)CSCc1cc(n(C)n1)CSc1cc(c3ccccc3c1)OCCCc1c(C(=O)O)n(C)c3c-2c(Cl)ccc13
F

Field entry: NC(=S)N/N=C/c1ncccc1N
F

Field entry: CCN(CC)Cc1ccc(Nc2nccc(-c3cnn4ncccc34)n2)cc1
T

Field entry: COc1ccc(C2SC(C)C(=O)N2NC(=O)C(O)c2ccccc2)cc1OC (stereo unspecified)
F

Field entry: CN1CC[C@@H](c2c(O)cc(O)c3c(=O)cc(-c4ccccc4Cl)oc23)[C@@H]1CO
T

---

Kindly supply the reported GI50 values for the records listed here.
# System: SNB-75 CNS
# Assay Text: NCI tumour cell line growth inhibition, 48 h

Quick check: GI50 of COc1ccc(/C=C2\CCCC3=C2NC(N)=NC3c2ccc(OC)c(OC)c2)cc1OC (stereo not given) ?
2.41 µM

Field entry: Cc1ccc(CNc2c3ccccc3nc3cc(NC(=O)CCN4CCCC4)ccc23)cc1
1.06 µM

Field entry: O=C(NN1C(=O)CSC12CCCC2)c1[nH]c2ccc(Br)cc2c1-c1ccccc1
46.1 µM

Field entry: Nc1[nH]nc2nc(-c3cccs3)cc(C(F)(F)F)c12
> 25 µM

Field entry: CCc1ccc(NC(=O)COC(=O)c2cc([N+](=O)[O-])ccc2Sc2nnnn2C)cc1
13.1 µM

---

# Test system: COLO 205 colon
# Assay Text: NCI tumour cell line growth inhibition, 48 h
Kindly supply the reported TGI values for the records listed here.

Quick check: TGI of O=C1C(=O)c2ccccc2C(O)=C1CCCc1ccc(Oc2ccccc2)cc1 ?
32.1 µM

Field entry: Cc1c(NC(=O)CSC(=S)N2CCN(Cc3ccccc3)CC2)c(=O)n(-c2ccccc2)n1C
> 100 µM

Field entry: O=C(Nc1ccc(Cl)c(Cl)c1)O/N=C\c1c(Cl)ccc([N+](=O)[O-])c1Cl
4.81 µM

Field entry: COc1c(Cl)cc(NC(=S)C#N)cc1Cl
32.2 µM

Field entry: CC(=O)c1c(C(F)(F)F)n([O-])c2cc(Cl)c(Cl)cc2[n+]1=O
2.11 µM

---

# Test system: OVCAR-8 ovarian
# Assay Text: NCI tumour cell line growth inhibition, 48 h
Kindly supply the reported TGI values for the records listed here.

Quick check: TGI of O=c1nc2oc3ccc4ccccc4c3cc-2s1 ?
> 100 µM

Field entry: CC(C)C(OC(=O)c1ccc(NCc2cc(O)ccc2O)cc1)C(C)C
3.77 µM

Field entry: COc1ccc(C(=O)/C=C/c2c(Cl)c3c(c(OC)c2Cl)OCC(=O)N3)cc1
16.3 µM

Field entry: OC(CCNCc1ccccc1)c1ccc2ccccc2c1 (configuration not stated)
45.9 µM

Field entry: N#Cc1ccccc1-c1nc2c3c(c(N)ccc3n1)C(=O)c1ccccc1-2
> 100 µM

Field entry: O=C(/C=C/c1ccc([N+](=O)[O-])cc1)c1ccc2c3c(cccc13)CC2
> 100 µM

Field entry: NNC(=O)Cn1c2ccc(Br)cc2c2nc3ccccc3nc21
> 100 µM

Field entry: O=c1[nH]nc(-c2ccccc2)n1/N=C/c1cccnc1
> 100 µM

Field entry: COc1ccc2ccccc2c1C1OC(=O)c2ccccc21 (configuration not stated)
> 100 µM

Field entry: C=C1C(=O)OC2/C=C(/C)C(OC(C)=O)CC(O)/C(C)=C\C(OC(=O)/C(C)=C\C)C12 (configuration not stated)
> 100 µM

Field entry: O=c1ccn(CC2(CO)CC(Cc3ccccc3)C2)c(=O)[nH]1 (configuration not stated)
> 100 µM

Field entry: COc1ccc(OC)c2c1C(=O)C1CC1(Br)C2=O (configuration not stated)
> 100 µM

Field entry: COC(=O)c1cc(Cl)ccc1NC(=O)c1ccc([N+](=O)[O-])cc1
63.9 µM

Field entry: COC(=O)c1cc2ccc(OC(C)=O)c(OC(C)=O)c2cn1
22.2 µM

Field entry: O=c1c2ccccc2nc(-c2ccccc2)n1NC1OC(CO)C(O)C(O)C1O (configuration not stated)
> 100 µM

Field entry: COc1ccc(C(=O)Cc2ccc(Br)cc2)cc1OC
> 100 µM

Field entry: Cc1c2c(n(CCc3ccc(Cl)cc3)c1C)NC(c1ccccc1)C(C#N)S2(=O)=O (configuration not stated)
> 100 µM

Field entry: CCOC(=O)NC(=O)c1cn(CCCCCCOC(=O)NCCCCCCNC(=O)OCCCCCCn2cc(C(=O)NC(=O)OCC)c(=O)[nH]c2=O)c(=O)[nH]c1=O
> 100 µM

Field entry: O=C1CC(S(=O)(=O)O)C=C1Nc1cccc(Cl)c1 (configuration not stated)
> 100 µM

Field entry: CCN(CC)c1ccc2cc(C(=O)Nc3cccc4ccccc34)c(=N)oc2c1
> 100 µM

Field entry: CN(/N=C/c1cccc2cccnc12)c1ccccc1
> 100 µM

Field entry: Cc1ccc(Nc2nc(C)c(C(/C=C/c3ccc(/C=C/C(=N/NC(=O)C[n+]4ccccc4)c4sc(Nc5ccc(C)cc5[N+](=O)[O-])nc4C)cc3)=N\NC(=O)C[n+]3ccccc3)s2)c([N+](=O)[O-])c1
> 100 µM
